Just for reference, paper PMC7066280 is where these values come from.

Assay: Ivosidenib plasma PK after multiple oral doses (dose escalation)
Assay type: in vivo, human
Conditions: human, plasma, oral, 500 mg, glioma, 500 mg QD, cycle 2 day 1; geometric mean; read-out: AUC0-10hr
Description: In the dose escalation portion, patients with 1) glioma and 2) non-glioma solid tumors were enrolled into sequential cohorts using a standard 3 + 3 design. […] Plasma ivosidenib was measured using two validated liquid chromatography-tandem mass spectrometry (LC-MS/MS) methods. The lower limit of quantification (LLOQ) was 1.00 ng/mL (low-range assay) or 50.0 ng/mL (high-range assay). […] Plasma 2-HG concentrations were measured using a qualified LC-MS/MS method with an LLOQ of 30.0 ng/mL. […]
quantity.name: AUC(0-t) (ng·h/mL)
I only need the number, in ng·h/mL, no unit after it.

Entry under test: N#Cc1ccnc(N2C(=O)CC[C@H]2C(=O)N(c2cncc(F)c2)[C@H](C(=O)NC2CC(F)(F)C2)c2ccccc2Cl)c1 [ivosidenib] . Its AUC(0-t) was 20500

###

Assay: Ivosidenib plasma PK after a single oral dose (day −3, dose escalation), LC-MS/MS, non-compartmental
Type: in vivo
Settings: human, po, 400 mg, non-glioma solid tumors, single oral 400 mg, day −3, median (minimum; maximum), read-out: Tmax
quantity.name: Tmax
Kindly report the value followed by its unit.

The reported Tmax of the compound N#Cc1ccnc(N2C(=O)CC[C@H]2C(=O)N(c2cncc(F)c2)[C@H](C(=O)NC2CC(F)(F)C2)c2ccccc2Cl)c1 [ivosidenib] was 3 h

###

Experiment: Ivosidenib plasma PK after a single oral dose (day −3, dose escalation), LC-MS/MS, non-compartmental
Format: in vivo
Details: human, po, 500 mg, glioma, single oral 500 mg, day −3, geometric mean (geometric CV%)
quantity.name: Cmax (ng/mL)
The reply should contain only the number, in ng/mL.

Cmax in this record for N#Cc1ccnc(N2C(=O)CC[C@H]2C(=O)N(c2cncc(F)c2)[C@H](C(=O)NC2CC(F)(F)C2)c2ccccc2Cl)c1 [ivosidenib] : 2370

###

Assay: Ivosidenib plasma PK after single and multiple 500 mg QD doses (dose expansion)
Assay type: in vivo, human
Conditions: human, plasma, oral, 500 mg, expansion non-enhancing glioma, cycle 2 day 1, median (minimum; maximum)
quantity.name: Tmax (h)
State just the number; it will be interpreted in h.

Short answer for N#Cc1ccnc(N2C(=O)CC[C@H]2C(=O)N(c2cncc(F)c2)[C@H](C(=O)NC2CC(F)(F)C2)c2ccccc2Cl)c1 [ivosidenib] : Tmax was 3.05

###

Assay: Ivosidenib plasma PK after multiple oral doses (dose escalation)
Assay type: in vivo, human
Settings: human, plasma, oral, 300 mg, glioma, 300 mg QD, cycle 2 day 1; geometric mean; read-out: AUC0-tau
quantity.name: AUC (ng·h/mL)
Give your result in ng·h/mL as a bare value.

For this compound ( N#Cc1ccnc(N2C(=O)CC[C@H]2C(=O)N(c2cncc(F)c2)[C@H](C(=O)NC2CC(F)(F)C2)c2ccccc2Cl)c1 ), measured AUC is 50800

###

Assay: Ivosidenib plasma PK after a single oral dose (day −3, dose escalation), LC-MS/MS, non-compartmental
Type: in vivo
Conditions: human, po, 100 mg, glioma, single oral 100 mg, day −3, geometric mean (geometric CV%), read-out: AUC0-72h
quantity.name: AUC(0-t) (ng·h/mL)
Provide only the numeric value, understood in ng·h/mL.

Consider N#Cc1ccnc(N2C(=O)CC[C@H]2C(=O)N(c2cncc(F)c2)[C@H](C(=O)NC2CC(F)(F)C2)c2ccccc2Cl)c1 . Its measured AUC(0-t) is 32800

###

Test: Ivosidenib plasma PK after single and multiple 500 mg QD doses (dose expansion)
Assay type: in vivo, human
Details: human, plasma, oral, 500 mg, expansion non-enhancing glioma, cycle 1 day 1, geometric mean (geometric CV%), read-out: AUC0-8hr
quantity.name: AUC(0-t)
The reply must contain the numeric value and, after it, the unit.

Reported AUC(0-t) for N#Cc1ccnc(N2C(=O)CC[C@H]2C(=O)N(c2cncc(F)c2)[C@H](C(=O)NC2CC(F)(F)C2)c2ccccc2Cl)c1 [ivosidenib] was 14900 ng·h/mL

###

Assay: Ivosidenib plasma PK after single and multiple 500 mg QD doses (dose expansion)
Format: in vivo, human
Conditions: human, plasma, oral, 500 mg, expansion enhancing glioma, cycle 2 day 1, geometric mean (geometric CV%), read-out: AUC0-24hr
quantity.name: AUC(0-t) (ng·h/mL)
Hi! Could you send only the number? It should be in ng·h/mL, unit omitted.

Briefly, AUC(0-t) measured for N#Cc1ccnc(N2C(=O)CC[C@H]2C(=O)N(c2cncc(F)c2)[C@H](C(=O)NC2CC(F)(F)C2)c2ccccc2Cl)c1 [ivosidenib] : 62600

###

Test: Ivosidenib plasma PK after single and multiple 500 mg QD doses (dose expansion)
Assay type: in vivo, human
Conditions: human, plasma, oral, 500 mg, expansion chondrosarcoma, cycle 1 day 1, geometric mean (geometric CV%)
quantity.name: Cmax (ng/mL)
Give just the number in ng/mL; leave the unit off.

// Cmax lookup, compound = N#Cc1ccnc(N2C(=O)CC[C@H]2C(=O)N(c2cncc(F)c2)[C@H](C(=O)NC2CC(F)(F)C2)c2ccccc2Cl)c1 , result: 4260

###

Assay: Ivosidenib plasma PK after a single oral dose (day −3, dose escalation), LC-MS/MS, non-compartmental
Type: in vivo
Conditions: human, po, 800 mg, non-glioma solid tumors, single oral 800 mg, day −3, median (minimum; maximum), read-out: Tmax
quantity.name: Tmax (h)
Write the answer as a number in h, unit excluded.

Entry N#Cc1ccnc(N2C(=O)CC[C@H]2C(=O)N(c2cncc(F)c2)[C@H](C(=O)NC2CC(F)(F)C2)c2ccccc2Cl)c1 — recorded Tmax = 3

###

Test: Ivosidenib plasma PK after multiple oral doses (dose escalation)
Format: in vivo, human
Details: human, plasma, oral, 600 mg, glioma, 600 mg QD, cycle 2 day 1; geometric mean; read-out: AUC0-10hr
Description: In the dose escalation portion, patients with 1) glioma and 2) non-glioma solid tumors were enrolled into sequential cohorts using a standard 3 + 3 design. […] Plasma ivosidenib was measured using two validated liquid chromatography-tandem mass spectrometry (LC-MS/MS) methods. The lower limit of quantification (LLOQ) was 1.00 ng/mL (low-range assay) or 50.0 ng/mL (high-range assay). […] Plasma 2-HG concentrations were measured using a qualified LC-MS/MS method with an LLOQ of 30.0 ng/mL. […]
quantity.name: AUC(0-t) (ng·h/mL)
The response must be a number in ng·h/mL with no trailing unit.

Measured AUC(0-t), N#Cc1ccnc(N2C(=O)CC[C@H]2C(=O)N(c2cncc(F)c2)[C@H](C(=O)NC2CC(F)(F)C2)c2ccccc2Cl)c1 : 29100

###

Assay: Ivosidenib plasma PK after multiple oral doses (dose escalation)
Assay type: in vivo, human
Conditions: human, plasma, oral, 400 mg, non-glioma solid tumors, 400 mg QD, cycle 2 day 1; geometric mean
quantity.name: Cmax (ng/mL)
Supply the numeric figure in ng/mL, leaving out any unit text.

Field Cmax (entry N#Cc1ccnc(N2C(=O)CC[C@H]2C(=O)N(c2cncc(F)c2)[C@H](C(=O)NC2CC(F)(F)C2)c2ccccc2Cl)c1 ) reads 6800

###

Assay: Ivosidenib plasma PK after single and multiple 500 mg QD doses (dose expansion)
Format: in vivo, human
Settings: human, plasma, oral, 500 mg, expansion non-enhancing glioma, cycle 2 day 1, geometric mean (geometric CV%), read-out: AUC0-24hr
quantity.name: AUC(0-t) (ng·h/mL)
// return numeric value only (unit: ng·h/mL, not printed)

In plain terms, N#Cc1ccnc(N2C(=O)CC[C@H]2C(=O)N(c2cncc(F)c2)[C@H](C(=O)NC2CC(F)(F)C2)c2ccccc2Cl)c1 [ivosidenib] has a documented AUC(0-t) of 55700

###

Test: Ivosidenib plasma PK after single and multiple 500 mg QD doses (dose expansion)
Format: in vivo, human
Conditions: human, plasma, oral, 500 mg, expansion other solid tumors, cycle 1 day 1, median (minimum; maximum)
quantity.name: Tmax (h)
Reply with just the number (in h).

Recorded result, N#Cc1ccnc(N2C(=O)CC[C@H]2C(=O)N(c2cncc(F)c2)[C@H](C(=O)NC2CC(F)(F)C2)c2ccccc2Cl)c1 , Tmax: 2.55

###

Test: Ivosidenib plasma PK after single and multiple 500 mg QD doses (dose expansion)
Format: in vivo, human
Conditions: human, plasma, oral, 500 mg, expansion chondrosarcoma, cycle 2 day 1, median (minimum; maximum)
quantity.name: Tmax (h)
Kindly provide the numeric value in h only, without the unit symbol.

// sample N#Cc1ccnc(N2C(=O)CC[C@H]2C(=O)N(c2cncc(F)c2)[C@H](C(=O)NC2CC(F)(F)C2)c2ccccc2Cl)c1 , its Tmax was 2.08

###

Experiment: Ivosidenib plasma PK after a single oral dose (day −3, dose escalation), LC-MS/MS, non-compartmental
Format: in vivo
Details: human, po, 100 mg, non-glioma solid tumors, single oral 100 mg, day −3, median (minimum; maximum), read-out: Tmax
quantity.name: Tmax (h)
Report as a plain number; the unit h is understood.

Item: N#Cc1ccnc(N2C(=O)CC[C@H]2C(=O)N(c2cncc(F)c2)[C@H](C(=O)NC2CC(F)(F)C2)c2ccccc2Cl)c1 | Tmax: 3
